test: PET hydrolysis, aromatic products released after 48 h (umol product/mg enzyme); higher = more PET depolymerization activity; conditions: substrate: cryPow; 40 °C; pH 6.5
A collection of sequences and their measured PET hydrolysis

MACROMOLECULE_SEQUENCE: QTNPFQRGPAPTEATLEATRGPMATSQFTVSRPSGYRAGTVYYPTNAGGTVGGIVVVPGYTAYQSDINWWGPRLASWGFIVMTIDTNSTLDQPASRSRQQLAALDQLATLSRTSSSPIYNKLDTNRMGVMGWSMGGGGSLISTENRPSLKASIPFAPWNSTENFSSVTVPTLIIACQDDSIAPVYSHASPFYNSMTRNPKQFLEVRGEGHYCANSSNSDKDFLGKKGVAWMKRFMDNDTRFTTFACTNQESSLDVSDFRTARCS [DP032]
PET hydrolysis: < 3
--
MACROMOLECULE_SEQUENCE: ADNPYQRGPDPTVASVAATNGPFATAQLNVPSGNGFNGGTIYYPTDTSLGTWGAVAIVPGYTARFANEEAWMGPRLASFGFVVIGVETNSTTDWDTARGTQLLAALDYLTQKSSVRDRVDASRLAVIGHSMGGGGVVYAASQRPSLKAAIGLAPYAPSGNLSNVKVPMLIQGGQNDTVVTPSYLDGLYPTLPSSTPGAYVQYSGADHLFWTKANNIELRTQIPWLKIFLDNDTRYTQFMCPTLKDTASVAKYSAKCSLIPSAGSTTAPTTQPATSAPATTSPTTQPPSQPG [TEP083]
PET hydrolysis: < 3
--
MACROMOLECULE_SEQUENCE: ATNPYQRGPAPTAESISAERGSFAVADSAVSADSVSGFGGGTVYYPTDTSAGKFGAVAIAPGFTANEWSLAWLGPRLASHGFVVFIIDTITTGDQPAQRGDELRAALSYLTTSSPVRDRVDPARLGVMGHSMGGGGALQAAEDDPSIRAVIPMTPYDLDSPSPKVTAPTLIIGAQDDTIAPVAYHARPFYESLTSARAKEYIELRNQSHFAPNYPNATIASASIAWLKRYIDDDQRYQPFACPAQVGSWLISDFRSAC [DP034]
PET hydrolysis: < 3
--
MACROMOLECULE_SEQUENCE: ATPDHAATADHASAHHHAAYPVSQQTIPATDGTGFGAATLYAPQGTGRKTLGAIVVAPGLKGDQSDLAWLAQDLAGEGFIVLNMDTLGKYDLPNQRSYEMLAAAKYLATASSVKDQVDPADIGVVGYSLGGGGALQAAVEQHGLKAAVALMPYDFPAGTTDPYKPTESPTYPGITTPTLVITGQADTTAPAASMGKPAYDSIPASTPKQYLELRGADHLAARATTNGTVRDAVTNFLKVYLDGNSAYRKYVCPAPPTSAAISESASSCPR [ESM174]
PET hydrolysis: < 3
--
MACROMOLECULE_SEQUENCE: ADNPYQRGPDPTLASVSAQRGTFATAQVAVPAGDGFGGGMIYYPTDTSQGTFGAVAIVPGYTARFSVEEAWMGHWLASFGFVVIGVETNSTNDFDTARGTQLLAALDYLTQRSSVRDRVDASRQSVVGHSMGGGGALYAAGQRASLKAAVGLAPYKPSGNPTNVRVPTMIISGQNDTVVTPSYATGLYNTLPATTESAYMEFTGADHLFPTRANTLEMRILIPWLKIFVDSDNRYSQFLCPLQDSTGIRGYRSTCPFLPNPTTSPSTTAPTTPPTTPPTTPPTGACSATYRTVNSWPGGFQGEVTVSAGSTPVDGWAVRWTLASGQAVTQVWNGALSVSGSAVTVRNTTYNGSLGANASTTFGFLASGSPTPVSLTCTSP [ESM033]
PET hydrolysis: 35
--
MACROMOLECULE_SEQUENCE: AAPAGPAALPARPLAAAPADSPYERGPAPTEASITAERGPFAIEKIDVPAGSGTGFNRGTIYAPTDTSQGTFGAIAVSPGFMSPQSVIDWYGPRLASQGFVVMTLETKSLLDAPAARGDQLLAALDYMTGKSKAKDRIDASRLAVMGHSMGGGGTLEAANKRASLQAAVPLAPWDTNYDWKNVQAPTMIMGADNDTIAPADSMAERYYGTLTAVPEKAYLELRNAGHTTFNAPNTTIAKYAIAWMKRFVDDDARYEQFLCPEPSPSTTIAQYEGTCPTG [TEP067]
PET hydrolysis: 14
--
MACROMOLECULE_SEQUENCE: CAAGGPGASPGLQPTIASLSVDGAFKVMTYTDIPDVPEFGDATVYYPADTPTPIGGVAISPGWTEAQRHINWWGPRLASHGYAVLVLDTNDARRDQPEERAEALIAAVRILRGENDRAESPLQGRVDTGKMAIMGHSMGGGGTLIAANKYPDEIQAAIPFTPWQPDGDFGQITAPTLVMAGSADRVAGVADHAWPHYQSIPETTTKVFMEVDGGNHFIADTRRGTDLGTIGRYGIAWLKLYLDGDERYRSFIYGAEAEVDREKFSRYLTSP [TEP119]
PET hydrolysis: < 3
--
MACROMOLECULE_SEQUENCE: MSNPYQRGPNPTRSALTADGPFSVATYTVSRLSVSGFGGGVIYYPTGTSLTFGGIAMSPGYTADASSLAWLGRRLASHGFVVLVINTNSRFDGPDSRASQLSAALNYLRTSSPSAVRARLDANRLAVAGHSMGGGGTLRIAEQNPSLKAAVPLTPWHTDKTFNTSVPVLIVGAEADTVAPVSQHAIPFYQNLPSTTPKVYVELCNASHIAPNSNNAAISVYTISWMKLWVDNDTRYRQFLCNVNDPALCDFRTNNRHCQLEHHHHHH [LCC-ICCG]
PET hydrolysis: 94.5
--
MACROMOLECULE_SEQUENCE: AIEHRRGPAPSEQSVLAANGPFSHSTFAVSDAASAKFGKGTIYYPNDTSQGTFGGVAISPGYTSTEPHIAWLGTRLAAHGFVTITITTNSLYDNPTERGQQLLAALDYLANNAPLAIRQRLDTSRMGVVGHSMGGGGSLYAVWNRPALKAAVPLAPYHTIKNWSGIKTPTMIIGGSADGVAPVEEHSERFYSSMTYARERAYAELEGANHSGSFLFEDHPIIGKFTVAWLKRFIDGDTRYDQFLCPPPTGAYLTEYRASCPHA [DP006]
PET hydrolysis: < 3
--
MACROMOLECULE_SEQUENCE: MPQQAQAGPGNPYERGPAPTEASVTAERGPFAVSQKAVPESADGRFNKGTVYYPTDTSQGTFGAVAISPGFVSPEAAVGWLGPRLASQGFVVMTLETNTPLDFPDQRADQLLGALDWLTTSSDVRERIDASRLAVAGHSMGGGASLRASEKRPTLQAAVPLTPWHTDKTWEKDPVPTLVVGAENDTVAPVAEHAEPFYSSLSAAPEKAYLELEGADHLAPVAPNVTVAKYAISWLKRYVDDDTRYEQFLCPPPRPSSTISEYRDTCPGS [TEP193]
PET hydrolysis: < 3

----------
experiment: purified protein yield per well (BCA); higher = higher soluble expression
MEASUREMENT_LABEL: purified protein yield per well

MACROMOLECULE_SEQUENCE: QNPYERGPAPTTSSLEASRGPFSTSSFTVSRPSGYGAGTVYYPTNAGGTVGAIAIVPGFTARQSSINWWGPRLASHGFVVITIDTNSTLDQPASRSRQQLAALDQVATLARTSSSPIYNKVDTTRMGVMGWSMGGGGSLISAQNRPSLKAAAPQAPWNGSTSFGSVTVPTLIFACENDSIAPVGSHASPMYNSMTRNPKEFIEIDGGSHSCANSGNSNQALIGKKGVAWMKRFMDNDTRYTSFACANPNSTRVSDFRVARCS [ESM066]
MEASUREMENT_LABEL: purified protein yield per well
READOUT_VALUE: < 25 µg

MACROMOLECULE_SEQUENCE: DQGPPPTIASLSVDGAYAVMTYTDIPDVPEFGDATVYYPVDTAMPIGGVAISPGWTELQRHIEWWGPRLASHGYAVLILDTNDAMADQPEQRAEALIAAVRILRGENDRAGSPLSGRIDTEKMAIMGHSMGGGGVLIAANNYPAEIQAAIPFTPWQPAGDFSQVVAPTLVMAGSADRVASVSDHAWPHYQSIPESTIKVFLEIDGGSHFIADTSRGEDLGTIGRYGIAWLKLYLDGDERYRGFIYGDEAASDSEKFSRYVTSP [TEP021]
MEASUREMENT_LABEL: purified protein yield per well
READOUT_VALUE: 76.5 µg

MACROMOLECULE_SEQUENCE: MAAGGLVAAQAAGAQAAPAQAAAANPYERGPAPTEASIEAARGSYAVSQTTVSSLSVSGFGGGTVYYPTSTSDGTFGAVVISPGYTAYQSSIAWLGPRLASQGFVVFTIDTLTTLDQPDSRGRQLLAALDYLTQSSSVRTRIDSSRLGVMGHSMGGGGTLEAAKSRPSLQAAIPLTGWNLDKTWPEIKTPTLIVGADGDTIAPVATHSEPFYESLPSSLDKAYLELNGATHFTPNSSNTTIAKYSISWLKRFIDNDTRYEQFLCPLPRPSLTIDEYRGNCPHTS [TEP052]
MEASUREMENT_LABEL: purified protein yield per well
READOUT_VALUE: < 25 µg
